system: DU145; test: Euclidean distance of Cell Painting phenotypic profile (signed KS, 77 features) to DMSO centroid (dimensionless distance); 5 or 10 uM (library dependent); higher = stronger phenotypic change vs DMSO (phenoactivity); settings: 48 h
Structures can show the parent of a compound that is named as a salt.
measurement-kind: Euclidean distance
Write the number on its own, no unit after it.

# compound, system, recorded-result
measured = [
    ("NCc1ccccc1CC(=O)N[C@@H]1C(=O)N2C(C(=O)O)=C(CSc3nnnn3CC(=O)O)CS[C@H]12 [Ceforanide]", "DU145", 1.07),
    ("NC(=O)NO [Hydroxyurea]", "DU145", 1.13),
    ("COC(=O)C1=C(C)NC(C)=C(C(=O)OCCN(C)Cc2ccccc2)C1c1cccc([N+](=O)[O-])c1 (stereo unspecified) [Nicardipine HCl]", "DU145", 0.897),
]

Recorded result, "O=C(NCCN1CCOCC1)Nc1nc2ccc(Sc3nnc4ccc(-c5ccc(F)cc5)nn34)cc2s1" , Euclidean distance: 1.2

Short answer for "Cc1cnc(NC(=O)C2=C(O)c3ccccc3S(=O)(=O)N2C)s1" : Euclidean distance was 2.37

Recorded Euclidean distance (compound "O=C(/C=C/C#Cc1cccc(NS(=O)(=O)c2ccccc2)c1)NO" ): 2.81

Quick note, Euclidean distance for "N[C@@H](C(=O)N[C@@H]1C(=O)N2C(C(=O)O)=C(Cl)CS[C@H]12)c1ccccc1" landed at 0.688

For "N#C[C@@H]1CCCN1C(=O)CNC12CC3CC(CC(O)(C3)C1)C2" the compound record lists Euclidean distance as 1.43

Lab note: measured Euclidean distance of "CC(C)NC[C@@H](C(=O)N1CCN(c2ncnc3c2[C@H](C)C[C@H]3O)CC1)c1ccc(Cl)cc1" was 1.44

Short answer for N=C(N)NC(=O)c1nc(Cl)c(N)nc1N [Amiloride HCl dihydrate] : Euclidean distance was 1.11

Recorded Euclidean distance (compound "Cc1ccc(-c2nc(N)nc3c2nnn3Cc2cccc(CO[C@H]3CCOC3)n2)o1" ): 0.81

The reported Euclidean distance of the compound "COc1cc(Nc2nc3ccccc3nc2NS(=O)(=O)c2ccc(NC(=O)c3ccc(C)c(OC)c3)cc2)cc(OC)c1" was 1.17

Just so you know, measured Euclidean distance for CCCCOc1cc(C(=O)NCCN(CC)CC)c2ccccc2n1 [Cinchocaine] came out at 0.93

"CS(=O)(=O)CCNCc1ccc(-c2ccc3ncnc(Nc4ccc(OCc5cccc(F)c5)c(Cl)c4)c3c2)o1" yielded Euclidean distance of 2.2

The measured Euclidean distance associated with CN[C@@H]1[C@H](O[C@H]2[C@H](O[C@H]3[C@H](O)[C@@H](O)[C@H](NC(=N)N)[C@@H](O)[C@@H]3NC(=N)N)O[C@@H](C)[C@]2(O)CO)O[C@@H](CO)[C@H](O)[C@H]1O [Dihydrostreptomycin sulfate] reads 0.563

So for "Cc1ccc(NS(=O)(=O)c2cccc(C#N)c2)c2[nH]cc(C#N)c12" , the logged Euclidean distance turned out to be 1.67

Euclidean distance reported for this compound "NCC(=O)O" : 0.929

Input CCCCc1ncc(/C=C(\Cc2cccs2)C(=O)O)n1Cc1ccc(C(=O)O)cc1 [Eprosartan Mesylate] . Output Euclidean distance: 1.64

Memo: CN(N=O)C(=O)NC1C(O)OC(CO)C(O)C1O (stereo unspecified) [Streptozotocin (STZ)] , reported Euclidean distance: 0.768

Briefly, Euclidean distance measured for Cc1ncc(CO)c(CO)c1O [Pyridoxine HCl] : 0.642

The measurements presented in this section are drawn from the supplement of paper PMC10127200.
